# Study System: canine FcRn/B2M protein complex (canine FcRn ECD with C-terminal poly-His tag and canine Beta-2-Microglobulin) (canine)
# Experimental Protocol: SPR Biacore 8K, pH 6.0, 25 C; Fc captured by SASA tag on BSA chip, FcRn/B2M 400 nM as analyte
Reported Metric: koff (s⁻¹)

1) variant canine IgG-B Fc polypeptide 0YF (Gln83Tyr, Asn208Phe) (protein, not shown: small tags and cut ends) CPAPEMLGGPSVFIFPPKPKDTLLIARTPEVTCVVVDLDPEDPEVQISWFVDGKQMQTAKTQPREEQFNGTYRVVSVLPIGHYDWLKGKQFTCKVNNKALPSPIERTISKARGQAHQPSVYVLPPSREELSKNTVSLTCLIKDFFPPDIDVEWQSNGQQEPESKYRTTPPQLDEDGSYFLYSKLSVDKSRWQRGDTFICAVMHEALHFHYTQESLSHSPGK : 0.00118
